For each of the compounds below, state its IC50.
- STUDY_TARGET: Human HDAC7 (Homo sapiens, UniProt Q8WUI4)
- Construct: (a.a. 518-end) with N-terminal GST tag; GST (N); host or cells: baculovirus expression system
- Sequence (Q8WUI4 518-952 limits assumed): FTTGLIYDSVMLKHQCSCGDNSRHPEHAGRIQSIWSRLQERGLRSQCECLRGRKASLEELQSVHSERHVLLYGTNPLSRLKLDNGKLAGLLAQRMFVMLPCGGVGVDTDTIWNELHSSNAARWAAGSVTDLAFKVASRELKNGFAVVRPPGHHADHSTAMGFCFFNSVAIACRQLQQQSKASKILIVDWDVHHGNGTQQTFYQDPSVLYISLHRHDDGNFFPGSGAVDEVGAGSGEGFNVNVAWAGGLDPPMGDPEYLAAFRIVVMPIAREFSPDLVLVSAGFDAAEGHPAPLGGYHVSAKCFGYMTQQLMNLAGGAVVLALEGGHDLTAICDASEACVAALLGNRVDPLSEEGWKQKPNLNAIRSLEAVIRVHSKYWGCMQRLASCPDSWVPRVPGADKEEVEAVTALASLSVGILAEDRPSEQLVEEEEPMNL
- ASSAY_COMMENT: HDAC7 biochemical assay, class IIa-specific substrate
- ASSAY_CONDITIONS: read-out: HDAC Isoform IC50 (nM) 7
- Experimental: Activity against all zinc-dependent HDACs 1 to 11 was assessed by using an acetylated AMC-labeled peptide substrate. The substrate RHKK(Ac)AMC was used for HDAC1, HDAC2, HDAC3, HDAC6 and HDAC10; the substrate used for HDAC8 was RHK(Ac)K(Ac)AMC. Activity against the class IIa HDACs (HDAC4, 5, 7, 9) and HDAC11 was determined using a class IIa-specific substrate, BOC-Lys(trifluoroacetyl)-AMC (“Trifluoroacetyl Lysine”; see Lahm et al, 2007, PNAS, 104, 17335-17340). […]

Challenge: Item under review: COc1nccc(N(Cc2ccc(-c3noc(C(F)(F)F)n3)s2)c2cnccn2)n1 [Example CB] . Reported IC50?
Response given: ≤ 1000 nM

Challenge: Can you look up the measured IC50 of FC(F)c1cnnc(N(Cc2ccc(-c3noc(C(F)(F)F)n3)s2)c2cnccn2)c1 [Example GV] for me?
Response given: ≤ 1000 nM

Challenge: Item FC(F)(F)c1nc(-c2ccc(CN(c3cnccn3)c3ccc4nccn4n3)s2)no1 [Example DT] has what recorded IC50?
Response given: ≤ 500 nM

Challenge: Entry under review: Cc1ncc(N(Cc2ccc(-c3noc(C(F)(F)F)n3)s2)c2cnccn2)c(C)n1 [Example DB] . Reported IC50?
Response given: ≤ 1000 nM

Challenge: IC50 lookup needed for FC(F)(F)c1nc(-c2ccc(CN(c3ccc(N4CCCC4)nc3)c3cnccn3)s2)no1 [Example AP] , thanks.
Response given: ≤ 10000 nM

Challenge: Need IC50, item FC(F)(F)c1nc(-c2ccc(CN(c3cnccn3)c3cccnn3)s2)no1 [Example DD]
Response given: ≤ 10000 nM

Challenge: Which IC50 is listed for O=C(c1cnnc(N(Cc2ccc(-c3noc(C(F)(F)F)n3)s2)c2cnccn2)c1)N1CC2CCC(C1)O2 [Example GA] ?
Response given: ≤ 10000 nM

Challenge: // lookup IC50 for FC(F)(F)c1nc(-c2ccc(CN(c3cnccn3)c3ccnc4ccnn34)s2)no1 [Example CF]
Response given: ≤ 10000 nM

Challenge: Field request: IC50 | item: COc1cncc(N(Cc2ccc(-c3noc(C(F)(F)F)n3)s2)c2cc(C(F)(F)F)cnn2)n1 [Example EN]
Response given: ≤ 10000 nM

Challenge: Field request: IC50 | item: NC(=O)c1cnnc(N(Cc2ccc(-c3noc(C(F)(F)F)n3)s2)c2cnccn2)c1 [Example DX]
Response given: ≤ 500 nM

Challenge: Entry FC(F)(F)c1nc(-c2ccc(CN(c3cnccn3)c3ccc(N4CCCC4)nn3)s2)no1 [Example DI] has what IC50?
Response given: ≤ 1000 nM

Challenge: Name the recorded IC50 for FC(F)(F)c1cncc(N(Cc2ccc(-c3noc(C(F)(F)F)n3)s2)c2cnccn2)n1 [Example BR] .
Response given: ≤ 10000 nM

Challenge: Endpoint output: IC50 of COc1ncc(N(Cc2ccc(-c3noc(C(F)(F)F)n3)s2)c2cnccn2)cn1 [Example CT] . Value?
Response given: ≤ 500 nM

Challenge: Which measured IC50 value corresponds to FC(F)(F)c1nc(-c2ccc(CN(c3ccc(N4CCOCC4)cn3)c3cnccn3)s2)no1 [Example AD] ?
Response given: ≤ 10000 nM

Challenge: Fill in: IC50 of O=C(c1cnnc(N(Cc2ccc(-c3noc(C(F)(F)F)n3)s2)c2cnccn2)c1)N1CCC(F)(F)CC1 [Example FY] is ___
Response given: ≤ 10000 nM

Challenge: // IC50 lookup, key: O=C(c1ccc(N(Cc2ccc(-c3noc(C(F)(F)F)n3)s2)c2cnccn2)nn1)N1CC(O)(C(F)(F)F)C1 [Example FK]
Response given: ≤ 500 nM
